Data provenance: patent US20080038256A1

- testedOn: HGF/SF (hepatocyte growth factor/scatter factor) (UniProt P14210 32-728, limits assumed)
- Sequence (P14210 32-728 limits assumed): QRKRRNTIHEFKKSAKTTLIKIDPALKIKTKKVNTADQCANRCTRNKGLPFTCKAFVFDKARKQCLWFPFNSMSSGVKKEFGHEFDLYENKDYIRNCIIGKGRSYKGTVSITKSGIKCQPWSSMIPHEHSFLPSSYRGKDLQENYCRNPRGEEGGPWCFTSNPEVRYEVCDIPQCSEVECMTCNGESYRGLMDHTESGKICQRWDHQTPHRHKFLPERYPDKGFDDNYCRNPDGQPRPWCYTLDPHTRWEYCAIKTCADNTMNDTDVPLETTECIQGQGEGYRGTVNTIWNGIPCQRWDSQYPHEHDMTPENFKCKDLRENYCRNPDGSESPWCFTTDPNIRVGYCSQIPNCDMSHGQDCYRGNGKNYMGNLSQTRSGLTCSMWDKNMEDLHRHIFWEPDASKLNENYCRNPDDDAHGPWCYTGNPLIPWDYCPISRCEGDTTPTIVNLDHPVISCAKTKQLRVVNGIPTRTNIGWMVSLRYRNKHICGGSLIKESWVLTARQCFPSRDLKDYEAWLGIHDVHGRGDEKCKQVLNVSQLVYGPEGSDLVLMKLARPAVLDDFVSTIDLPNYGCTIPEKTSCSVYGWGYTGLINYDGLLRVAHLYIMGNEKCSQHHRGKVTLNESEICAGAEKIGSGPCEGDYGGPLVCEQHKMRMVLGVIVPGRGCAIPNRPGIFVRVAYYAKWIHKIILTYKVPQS
- measurementProtocol: SPR (BIAcore), HGF/SF immobilized on CM5 chip, Fab injected
Examples of binders with documented kon follow.
measurementLabel: kon (M⁻¹ s⁻¹)

INSERT INTO results (binder, numericvalue) VALUES
  ('HSFN 68-16 Fab (Fab, V domains shown, Fab with human Ckappa and human CH1, expressed from pComb3X in E. coli HB2151) VH: QQQLVESGGGLVQPGGSLRLSCAASGFTFSTYYMSWIRQAPGKGLEWIGYIGTSSGTTYYANSVKGRFTISSDNAQNSVYLQMNSLRPEDTAVYYCARGLGRINLWGQGTLVTVSS VL: ELVMTQSPSTLSASVGDRVTITCRASQSISSWLAWYQQKPGKAPKLLIYKASTLESGVSSRFSGGGSGTEFTLTISSLQPDDFATYYCQQYSRYSGGTFGQGTKVEIRR', 32400),
  ('HSFN 68-27 Fab (Fab, V domains shown, Fab with human Ckappa and human CH1, expressed from pComb3X in E. coli HB2151) VH: QVQLVESGGGLVKPGGSRRLSCAASGFTFSTYYMSWVRQAPGKGLEWIGYIGTSSGTTYYANSVKGRFTISSDNAQNSVYLQMNSLRPEDTAVYYCARGLGRINLWGQGTLVTVSS VL: ELQMTQSPSTLSASVGDRVTITCRASQSISSRLAWYQQKPGKAPKLLIYRASTLEGGVPSRFSGSGSGTEFTLTISGLQPDDFATYYCQQYSTFSPTFGQGTQVDIKR', 392000),
  ('HSFN 68-13 Fab (Fab, V domains shown, also called anti-HGF/SF Fab humanized antibody) VH: QQQLVESGGGVVRPGGSLRLSCAASGFTFSTYYMSWVRQAPGKGLEWIGYIGTSSGTTYYANSVKGRFTISSDNAKNSVYLQMNSLRPEDTAVYYCARGLGRINLWGPGTLVTVSS VL: ELQMTQSPSSLSASVGDRVTITCRASQSISTWLAWYQQKPGKAPKLLIYKASTLESGVPLRFSGGGSGTDFTLTISSLQSEDFATYFCQQSYSLPPTFGQGTKVEVKR', 647000),
  ('HSFN 68-41 Fab (Fab, V domains shown, Fab with human Ckappa and human CH1, expressed from pComb3X in E. coli HB2151) VH: QQQLVESGGGLVQPGGSLRLSCAASGFTFSTYYMSWVRQAPGKGLEWVGYIGTSSGTTYYANSVKGRFTISSDNAKNSVYLQMNSLRPEDTAVYYCARGLGRINLWGQGTLVTVSS VL: ELQMTQSPSSVSASVGDRVTISCRASQDIRSLLAWYQQKPGKAPKLLIYKASTLESGVPSRFSGSGSGTEFTLTISNLQPDDFATYYCQQYSRYSGGTFGQGTKVEIRR', 106000);
